# Test system: BaF3 wild-type cells
# ASSAY PROTOCOL: Cellular screening, BaF3 wild-type cells, Alamar Blue
# Format: cell-based
# SETTINGS: Mus musculus, 40 hr, read-out: BAF3wt IC50_nM
# Description: For screening purposes, compounds were diluted in 96 well plates at a concentration of 20 μM. Plates were warmed at 37° C. for 30 minutes before the assay was performed. […] Compounds to be tested were added (10 μL, 10× final concentration) to a flat bottomed 96-well plate. […] The plates were then read at 544 nm.
pIC50: −log10 of the molar value.
PROPERTY MEASURED: pIC50

Request: Jot down pIC50 (BaF3 wild-type cells) of CC#CC(=O)Nc1cccc(Nc2nccc(SC)n2)c1 [Compound 8] .
Response: > 4.70

Others:
Request: Look up and report pIC50, with BaF3 wild-type cells as system, for Cc1cnc(Nc2ccc(N3CCOCC3)cc2)nc1Sc1ccc(N)cc1Cl [Compound 251]
Response: < 4.70

Request: Jot down pIC50 (BaF3 wild-type cells) of C=CC(=O)Nc1ccc(Sc2nc(Nc3ccc(N4CCOCC4)cc3)ncc2C)cc1C [Compound 259] .
Response: > 4.70

Request: Provide pIC50, recorded with BaF3 wild-type cells, of C=CC(=O)Nc1ccc(Sc2nc(Nc3ccc(N4CCOCC4)cc3)ncc2-c2ccccc2)cc1 [Compound 307]
Response: < 4.70

Request: Give pIC50; test system BaF3 wild-type cells; molecule OCc1ccc(Sc2ccnc(Nc3ccc(N4CCOCC4)cc3)n2)cc1 [Compound 67]
Response: > 4.70

Request: State, for BaF3 wild-type cells, measured pIC50 of the molecule listed here: CCOC(=O)/C=C/C(=O)Nc1ccc(Sc2nc(Nc3ccc(N4CCOCC4)cc3)ncc2C)cc1 [Compound 385]
Response: < 4.70

Request: Quote BaF3 wild-type cells pIC50 for entry O=C(/C=C/Cl)Nc1cccc(Sc2ccnc(Nc3ccc(N4CCOCC4)cc3)n2)c1 [Compound 340] .
Response: > 5.30

Request: System BaF3 wild-type cells. Read-out pIC50. Item Cc1cnc(Nc2ccc(N3CCOCC3)cc2)nc1Sc1ccc(CC#N)cc1 [Compound 222] . Report value.
Response: < 4.70

Request: Under BaF3 wild-type cells: report pIC50 of CC#CC(=O)Nc1ccc(Sc2ccnc(Nc3ccc(N4CCOCC4)cc3)n2)cc1 [Compound 104] .
Response: < 4.70

Request: Write pIC50 of C=CC(=O)Nc1ccc(Sc2nc(Nc3ccc(N4CCOCC4)cc3)ncc2I)cc1 [Compound 313] ; system used: BaF3 wild-type cells
Response: < 4.70

Request: Would you please give the reported pIC50 of C=CC(=O)Nc1ccc(Sc2ccnc(Nc3ccc(OC)cc3)n2)cc1 [Compound 74] with BaF3 wild-type cells?
Response: < 4.70

Request: Please respond with reported pIC50 (system BaF3 wild-type cells) for C=CC(=O)Nc1ccc(Sc2ccnc(Nc3ccc(F)c(C#N)c3)n2)cc1 [Compound 354] .
Response: > 4.70

Request: Fill in pIC50 for C=CC(=O)Nc1ccc(Sc2nc(Nc3ccc(CNS(C)(=O)=O)cc3)ncc2C)cc1 [Compound 294] tested with BaF3 wild-type cells.
Response: < 4.70

Request: Lab note: record pIC50 of Cc1cnc(Nc2cccc(O)c2)nc1Sc1ccc(NC(=O)CCl)cc1 [Compound 194] tested on BaF3 wild-type cells.
Response: > 5.30

Request: Answer briefly: pIC50 recorded on BaF3 wild-type cells for C=CC(=O)Nc1cccc(Nc2nccc(Sc3ccccc3)n2)c1 [Compound 16]
Response: > 4.70

Request: Report the value of pIC50 obtained on BaF3 wild-type cells for N#Cc1nnnn1Cc1ccc(Sc2ccnc(Nc3ccc(N4CCOCC4)cc3)n2)cc1 [Compound 155] .
Response: > 4.70

Request: Under BaF3 wild-type cells: report pIC50 of NC(=O)c1nccn1Cc1ccc(Sc2ccnc(Nc3ccc(N4CCOCC4)cc3)n2)cc1 [Compound 149] .
Response: > 5.30

Request: Report measured pIC50 on BaF3 wild-type cells; entry: C=CC(=O)Nc1ccc(Sc2nc(Nc3cccc(OCCCO)c3)ncc2C)cc1 [Compound 301]
Response: > 4.70
